Tested on: Lichtheimia corymbifera
Experiment: Antifungal activity against Absidia corymbifera 272 after 24 hrs by broth microdilution method
Format: functional
Conditions: Lichtheimia corymbifera, 272, 24 h
Some compounds, each annotated with its measured MIC.
MEASURED_PARAMETER: MIC

INSERT INTO measurements (smiles_string, test_value) VALUES
  ('COc1cccc(Cn2nnc(-c3cc([N+](=O)[O-])cc([N+](=O)[O-])c3)n2)c1', '> 500 µM'),
  ('O=[N+]([O-])c1cc(-c2nnn(CSc3nnnn3Cc3ccccc3)n2)cc([N+](=O)[O-])c1', '> 125 µM'),
  ('O=[N+]([O-])c1cc(-c2nnn(Cc3ccc(Cl)cc3)n2)cc([N+](=O)[O-])c1', '> 500 µM'),
  ('O=[N+]([O-])c1cc(-c2nnn(CSc3nnnn3-c3ccccc3)n2)cc([N+](=O)[O-])c1', '> 125 µM'),
  ('Cn1nnnc1SCn1nnc(-c2cc([N+](=O)[O-])cc([N+](=O)[O-])c2)n1', '> 500 µM');

###

Parameter MIC99: see the listing below.
System: Mycobacterium avium
Assay: Antimycobacterial activity against Mycobacterium avium CNCTC My 330/80 after 14 days by micromethod
Format: functional
Details: CNCTC My 330/80, 336 h
MEASURED_PARAMETER: MIC99

INSERT INTO measurements (smiles_string, measured_parameter, test_value) VALUES
  ('O=[N+]([O-])c1cc(-c2nnn(Cc3cccc(Cl)c3)n2)cc([N+](=O)[O-])c1', 'MIC99', '4 µM'),
  ('O=[N+]([O-])c1cc(-c2nnnn2Cc2ccc(Cl)cc2)cc([N+](=O)[O-])c1', 'MIC99', '16 µM'),
  ('COc1cccc(-n2nnnc2SCn2nnc(-c3cc([N+](=O)[O-])cc([N+](=O)[O-])c3)n2)c1', 'MIC99', '8 µM'),
  ('COc1ccc(-n2nnnc2SCn2nnc(-c3cc([N+](=O)[O-])cc([N+](=O)[O-])c3)n2)cc1', 'MIC99', '1 µM'),
  ('COc1ccc(-n2nnnc2Sc2cc([N+](=O)[O-])cc([N+](=O)[O-])c2)cc1', 'MIC99', '8 µM'),
  ('O=[N+]([O-])c1cc(-c2nnn(Cc3ccc(F)c(F)c3)n2)cc([N+](=O)[O-])c1', 'MIC99', '4 µM'),
  ('O=[N+]([O-])c1cc(-c2nnn(CCCCSc3nnnn3-c3ccc(Br)cc3)n2)cc([N+](=O)[O-])c1', 'MIC99', '1 µM'),
  ('O=[N+]([O-])c1cc(-c2nnnn2Cc2ccccc2)cc([N+](=O)[O-])c1', 'MIC99', '16 µM'),
  ('O=[N+]([O-])c1cc(-c2nnn(Cc3ccc(Cl)cc3)n2)cc([N+](=O)[O-])c1', 'MIC99', '8 µM');

###

Test system: Mycobacterium avium
Experiment: Antimycobacterial activity against Mycobacterium avium CNCTC My 330/80 after 14 days by micromethod
Type: functional
Conditions: CNCTC My 330/80, 336 h
Labelling: MIC99 reported below 4 µM becomes True; at or above becomes False.

INSERT INTO assay_data (smiles_string, assigned_class) VALUES
  ('O=[N+]([O-])c1cc(-c2nnn(CCSc3nnnn3-c3ccc(Br)cc3)n2)cc([N+](=O)[O-])c1', 'True'),
  ('O=[N+]([O-])c1cc(Sc2nnnn2C2CCCCC2)cc([N+](=O)[O-])c1', 'False'),
  ('O=[N+]([O-])c1cc(Sc2nnnn2-c2ccccc2)cc([N+](=O)[O-])c1', 'False'),
  ('O=[N+]([O-])c1cc(-c2nnn(CSc3nnnn3-c3ccc(Cl)cc3)n2)cc([N+](=O)[O-])c1', 'True'),
  ('Cc1ccc(Cn2nnnc2-c2cc([N+](=O)[O-])cc([N+](=O)[O-])c2)cc1', 'False'),
  ('Cc1ccc(Cn2nnc(-c3cc([N+](=O)[O-])cc([N+](=O)[O-])c3)n2)cc1', 'False'),
  ('O=[N+]([O-])c1cc(Sc2nnnn2Cc2ccccc2)cc([N+](=O)[O-])c1', 'False'),
  ('CCCCCCCCCCCCn1nnc(-c2cc([N+](=O)[O-])cc([N+](=O)[O-])c2)n1', 'False'),
  ('O=[N+]([O-])c1cc(-c2nnn(CCCSc3nnnn3-c3ccc(Br)cc3)n2)cc([N+](=O)[O-])c1', 'True'),
  ('O=[N+]([O-])c1cc(-c2nnn(Cc3cccc(F)c3)n2)cc([N+](=O)[O-])c1', 'False'),
  ('O=[N+]([O-])c1cc(-c2nnn(CSc3nnnn3Cc3ccccc3)n2)cc([N+](=O)[O-])c1', 'False'),
  ('CCCCCCCCCCCCCCCCn1nnnc1SCn1nnc(-c2cc([N+](=O)[O-])cc([N+](=O)[O-])c2)n1', 'False'),
  ('O=[N+]([O-])c1cc(-c2nnn(Cc3ccccc3F)n2)cc([N+](=O)[O-])c1', 'False');

###

MIC values by entry
System: Staphylococcus epidermidis
Experiment: Antibacterial activity against Staphylococcus epidermidis HK6966/08 after 48 hrs by broth microdilution method
Format: functional
Settings: HK6966/08, 48 h
MEASURED_PARAMETER: MIC (µM)

INSERT INTO results (smiles_string, unit_abbrev, readout_qualifier, test_value) VALUES
  ('O=[N+]([O-])c1cc(-c2nnn(Cc3ccc(Cl)cc3)n2)cc([N+](=O)[O-])c1', 'µM', '=', 15.6),
  ('Cc1ccc(Cn2nnnc2-c2cc([N+](=O)[O-])cc([N+](=O)[O-])c2)cc1', 'µM', '=', 250),
  ('O=[N+]([O-])c1cc(-c2nnn(CSc3nnnn3-c3ccc(Cl)c(Cl)c3)n2)cc([N+](=O)[O-])c1', 'µM', '>', 125),
  ('Cc1ccc(Cn2nnc(-c3cc([N+](=O)[O-])cc([N+](=O)[O-])c3)n2)cc1', 'µM', '=', 62.5),
  ('COc1cccc(-n2nnnc2SCn2nnc(-c3cc([N+](=O)[O-])cc([N+](=O)[O-])c3)n2)c1', 'µM', '>', 125),
  ('O=[N+]([O-])c1cc(-c2nnn(Cc3cccc(Cl)c3)n2)cc([N+](=O)[O-])c1', 'µM', '>', 500),
  ('CCCCCCCCCCCCn1nnc(-c2cc([N+](=O)[O-])cc([N+](=O)[O-])c2)n1', 'µM', '>', 250),
  ('O=[N+]([O-])c1cc(-c2nnn(Cc3ccc(F)cc3)n2)cc([N+](=O)[O-])c1', 'µM', '>', 500),
  ('Cn1nnnc1SCn1nnc(-c2cc([N+](=O)[O-])cc([N+](=O)[O-])c2)n1', 'µM', '=', 125);

###

Assay: Selectivity index, ratio of IC50 for human HaCaT cells to MIC for Mycobacterium tuberculosis H37Rv CNCTC My 331/88
Type: toxicity
Settings: read-out: Selectivity Index
MEASURED_PARAMETER: selectivity ratio

INSERT INTO results (smiles_string, test_value) VALUES
  ('COc1ccc(Cn2nnc(-c3cc([N+](=O)[O-])cc([N+](=O)[O-])c3)n2)cc1', '> 1000');

###

System: Mycobacterium tuberculosis
Assay: Antimycobacterial activity against Mycobacterium tuberculosis H37Rv CNCTC My 331/88 after 21 days by micromethod
Type: functional
Conditions: H37Rv CNCTC My 331/88, 504 h
MEASURED_PARAMETER: MIC99 (µM)

INSERT INTO results (smiles_string, unit_abbrev, test_value) VALUES
  ('O=[N+]([O-])c1cc(-c2nnn(CSc3nnnn3-c3ccc(Br)cc3)n2)cc([N+](=O)[O-])c1', 'µM', 0.03),
  ('O=[N+]([O-])c1cc(-c2nnn(Cc3ccccc3F)n2)cc([N+](=O)[O-])c1', 'µM', 0.5),
  ('O=[N+]([O-])c1cc(Sc2nnnn2Cc2ccccc2)cc([N+](=O)[O-])c1', 'µM', 2),
  ('O=[N+]([O-])c1cc(-c2nnn(Cc3ccc(Cl)c(Cl)c3)n2)cc([N+](=O)[O-])c1', 'µM', 0.125),
  ('O=[N+]([O-])c1cc(-c2nnn(Cc3ccc(F)c(F)c3)n2)cc([N+](=O)[O-])c1', 'µM', 0.5),
  ('COc1ccccc1-n1nnnc1SCn1nnc(-c2cc([N+](=O)[O-])cc([N+](=O)[O-])c2)n1', 'µM', 0.25),
  ('Cc1ccc(Cn2nnc(-c3cc([N+](=O)[O-])cc([N+](=O)[O-])c3)n2)cc1', 'µM', 0.125),
  ('COc1cccc(Cn2nnc(-c3cc([N+](=O)[O-])cc([N+](=O)[O-])c3)n2)c1', 'µM', 1);
